- Species: Rattus norvegicus
- methodDescription: Open TG-GATES - Regimen: Single
- Assay type: toxicity, organism-based, Sprague-Dawley
- Set-up: regimen Single, gender Male, age 6 weeks
- testSettings: in vivo, po, 1000 mg/kg, 3 h, tissue Plasma, route gavage, dose level High

| compound | DBIL / mg/dL |
| --- | --- |
| O=C(O)c1cn(C2CC2)c2cc(N3CCNCC3)c(F)cc2c1=O | 0.022 |
| CCc1cc(C(N)=S)ccn1 [ETHIONAMIDE] | 0.014 |
| C[C@H](CS)C(=O)N1CCC[C@H]1C(=O)O | 0.006 |
| Clc1ccccc1CN1CCc2sccc2C1 | 0.076 |
| O=C(O)c1cc(/N=N/c2ccc(S(=O)(=O)Nc3ccccn3)cc2)ccc1O | 0.064 |

----------
- Organism: Rattus norvegicus
- methodDescription: Open TG-GATES - Regimen: Single
- Type: toxicity, organism-based, Sprague-Dawley
- Design: regimen Single, gender Male, age 6 weeks
- testSettings: in vivo, po, 100 mg/kg, 24 h, tissue Plasma, route gavage, dose level Low
Quick list: IP per entry.
observable: IP (mg/dL)

| molecule | observable | reportedValue |
| --- | --- | --- |
| Clc1ccccc1CN1CCc2sccc2C1 | IP | 8.1 |
| CCc1cc(C(N)=S)ccn1 [ETHIONAMIDE] | IP | 7.8 |
| O=C(O)c1cn(C2CC2)c2cc(N3CCNCC3)c(F)cc2c1=O | IP | 9.2 |
| C[C@H](CS)C(=O)N1CCC[C@H]1C(=O)O | IP | 8.5 |
| O=C(O)c1cc(/N=N/c2ccc(S(=O)(=O)Nc3ccccn3)cc2)ccc1O | IP | 7.7 |

----------
Catalogue of BUN readings, one per entry.
- Species: Rattus norvegicus
- methodDescription: Open TG-GATES - Regimen: Single
- Format: toxicity, organism-based, Sprague-Dawley
- Design: regimen Single, gender Male, age 6 weeks
- testSettings: in vivo, po, 100 mg/kg, 9 h, tissue Plasma, route gavage, dose level Low

| molecule | unitOfMeasure | BUN |
| --- | --- | --- |
| O=C(O)c1cc(/N=N/c2ccc(S(=O)(=O)Nc3ccccn3)cc2)ccc1O | mg/dL | 9.4 |
| O=C(O)c1cn(C2CC2)c2cc(N3CCNCC3)c(F)cc2c1=O | mg/dL | 11 |
| CCc1cc(C(N)=S)ccn1 [ETHIONAMIDE] | mg/dL | 15 |
| C[C@H](CS)C(=O)N1CCC[C@H]1C(=O)O | mg/dL | 13.4 |

----------
In this section we review reported CRE values for a set of compounds.
- Organism: Rattus norvegicus
- methodDescription: Open TG-GATES - Regimen: Single
- Assay type: toxicity, organism-based, Sprague-Dawley
- Set-up: regimen Single, gender Male, age 6 weeks
- testSettings: in vivo, po, 100 mg/kg, 3 h, tissue Plasma, route gavage, dose level Low

| compound | CRE (mg/dL) |
| --- | --- |
| O=C(O)c1cn(C2CC2)c2cc(N3CCNCC3)c(F)cc2c1=O | 0.5 |
| O=C(O)c1cc(/N=N/c2ccc(S(=O)(=O)Nc3ccccn3)cc2)ccc1O | 0.4 |
| Clc1ccccc1CN1CCc2sccc2C1 | 0.4 |
| CCc1cc(C(N)=S)ccn1 [ETHIONAMIDE] | 0.7 |
| C[C@H](CS)C(=O)N1CCC[C@H]1C(=O)O | 0.5 |

----------
List of Bas values.
- Species on record: Rattus norvegicus
- methodDescription: Open TG-GATES - Regimen: Single
- Format: toxicity, organism-based, Sprague-Dawley
- Design: regimen Single, gender Male, age 6 weeks
- testSettings: in vivo, po, 1000 mg/kg, 24 h, tissue Blood, route gavage, dose level High
observable: Bas (%)

| compound | unitOfMeasure | reportedValue |
| --- | --- | --- |
| O=C(O)c1cc(/N=N/c2ccc(S(=O)(=O)Nc3ccccn3)cc2)ccc1O | % | 0 |
| Clc1ccccc1CN1CCc2sccc2C1 | % | 0.4 |
| CCc1cc(C(N)=S)ccn1 [ETHIONAMIDE] | % | 0 |
| C[C@H](CS)C(=O)N1CCC[C@H]1C(=O)O | % | 0 |
| O=C(O)c1cn(C2CC2)c2cc(N3CCNCC3)c(F)cc2c1=O | % | 0 |

----------
- Species on record: Rattus norvegicus
- methodDescription: Open TG-GATES - Regimen: Single
- Format: toxicity, organism-based, Sprague-Dawley
- Set-up: regimen Single, gender Male, age 6 weeks
- testSettings: in vivo, po, 0 mg/kg, 9 h, tissue Blood, route gavage, dose level Control
Here the recorded WBC is given for each entry.
observable: WBC

| molecule | reportedValue |
| --- | --- |
| O=C(O)c1cc(/N=N/c2ccc(S(=O)(=O)Nc3ccccn3)cc2)ccc1O | 85.1 x10_2/uL |
| COc1ccc(Cc2nccc3cc(OC)c(OC)cc23)cc1OC | 110.4 x10_2/uL |
| NC(=O)N1c2ccccc2C=Cc2ccccc21 [CARBAMAZEPINE] | 89.4 x10_2/uL |
| Clc1ccccc1CN1CCc2sccc2C1 | 87.2 x10_2/uL |
| CN(C)CCC=C1c2ccccc2CCc2ccccc21 | 71.6 x10_2/uL |
| Cn1c(=O)c2[nH]cnc2n(C)c1=O.O | 79.6 x10_2/uL |
| CSc1ccc2c(c1)N(CCC1CCCCN1C)c1ccccc1S2 (configuration not stated) | 117.1 x10_2/uL |
| CC(=O)Oc1ccccc1C(=O)O | 88.9 x10_2/uL |
| C[C@H](CS)C(=O)N1CCC[C@H]1C(=O)O | 89.1 x10_2/uL |
| CCc1cc(C(N)=S)ccn1 [ETHIONAMIDE] | 97.9 x10_2/uL |
| O=C(O)c1cn(C2CC2)c2cc(N3CCNCC3)c(F)cc2c1=O | 115.5 x10_2/uL |
| NC(=O)N/N=C/c1ccc([N+](=O)[O-])o1 | 64.3 x10_2/uL |

----------
- Species: Rattus norvegicus
- methodDescription: Open TG-GATES - Regimen: Single
- Format: toxicity, organism-based, Sprague-Dawley
- Parameters: regimen Single, gender Male, age 6 weeks
- testSettings: in vivo, po, 1000 mg/kg, 24 h, tissue Blood, route gavage, dose level High
MCV overview

| compound | unitOfMeasure | MCV |
| --- | --- | --- |
| O=C(O)c1cc(/N=N/c2ccc(S(=O)(=O)Nc3ccccn3)cc2)ccc1O [SULFASALAZINE] | fL | 63 |
| CCc1cc(C(N)=S)ccn1 [ETHIONAMIDE] | fL | 65.3 |
| C[C@H](CS)C(=O)N1CCC[C@H]1C(=O)O [CAPTOPRIL] | fL | 65.3 |
| Clc1ccccc1CN1CCc2sccc2C1 [TICLOPIDINE] | fL | 59.9 |

----------
- Organism: Rattus norvegicus
- methodDescription: Open TG-GATES - Regimen: Single
- Format: toxicity, organism-based, Sprague-Dawley
- Parameters: regimen Single, gender Male, age 6 weeks
- testSettings: in vivo, po, 100 mg/kg, 6 h, tissue Blood, route gavage, dose level Low
Each item that follows carries a reported WBC.

| compound | WBC / x10_2/uL |
| --- | --- |
| Clc1ccccc1CN1CCc2sccc2C1 | 75.4 |
| O=C(O)c1cn(C2CC2)c2cc(N3CCNCC3)c(F)cc2c1=O | 119.3 |
| CCc1cc(C(N)=S)ccn1 [ETHIONAMIDE] | 84 |
| O=C(O)c1cc(/N=N/c2ccc(S(=O)(=O)Nc3ccccn3)cc2)ccc1O | 89.7 |
| C[C@H](CS)C(=O)N1CCC[C@H]1C(=O)O | 126.2 |

----------
- Organism: Rattus norvegicus
- methodDescription: Open TG-GATES - Regimen: Daily Repeat
- Format: toxicity, organism-based, Sprague-Dawley
- Design: regimen Daily Repeat, gender Male, age 6 weeks
- testSettings: in vivo, po, 0 mg/kg, 72 h, tissue Plasma, route gavage, dose level Control, time 3 day
# key: entry, value: TG

| molecule | TG |
| --- | --- |
| O=C(O)c1cc(/N=N/c2ccc(S(=O)(=O)Nc3ccccn3)cc2)ccc1O | 104 mg/dL |
| CN(C)CCC=C1c2ccccc2CCc2ccccc21 | 121.8 mg/dL |
| CC(=O)Oc1ccccc1C(=O)O | 99.2 mg/dL |
| COc1ccc(Cc2nccc3cc(OC)c(OC)cc23)cc1OC | 116 mg/dL |
| CO[C@H]1/C=C/O[C@@]2(C)Oc3c(C)c(O)c4c(O)c(c(/C=N/N5CCN(C)CC5)c(O)c4c3C2=O)NC(=O)/C(C)=C\C=C\[C@H](C)[C@H](O)[C@@H](C)[C@@H](O)[C@@H](C)[C@H](OC(C)=O)[C@@H]1C | 112.8 mg/dL |
| CSc1ccc2c(c1)N(CCC1CCCCN1C)c1ccccc1S2 (stereo unspecified) | 88.2 mg/dL |
| NC(=O)N/N=C/c1ccc([N+](=O)[O-])o1 | 100.8 mg/dL |
| CCc1cc(C(N)=S)ccn1 [ETHIONAMIDE] | 99 mg/dL |
| CCCC(CCC)C(=O)O | 84.6 mg/dL |
| Cn1c(=O)c2[nH]cnc2n(C)c1=O.O | 96.2 mg/dL |
| COc1ccc2c(c1)c(CC(=O)O)c(C)n2C(=O)c1ccc(Cl)cc1 | 86.8 mg/dL |
